B1: SH3 and PX domain-containing protein 2B, residues 155 to 209; numbered along this chain, A1X283 (parent)
chain: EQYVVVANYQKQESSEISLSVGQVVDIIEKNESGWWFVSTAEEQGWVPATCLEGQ

# Variants of: B1
# protocol-details: abundance fitness (aPCA) (normalised: wild type 0, dead -1); higher = more abundant; growth selection in yeast, the domain comes from the species named
# condition-info: Homo sapiens
Label t when abundance fitness is at or above -0.3; otherwise label f.

EQYVVVANYQKQESSEISLSVGQVVDIIEKNESGWWFVSTAYEQGWVPATCLEGQ [E42Y] : t
EQYVVVANYQKQESSEISLSVGQVVDIIEKNESGWWFVSTAEEQGWVPANCLEGQ [T50N] : t
EQYVVVANYQKQESSEISLSVQQVVDIIEKNESGWWFVSTAEEQGWVPATCLEGQ [G22Q] : f

Challenge: Decide: is the reported value of abundance fitness for EQYVVVANYQKQESSEISLSVGQVVDIIEKNESGWWFVSTAEEQGWVPATFLEGQ [C51F] equal to or greater than -0.3?
Response given: t

Challenge: Decide: is the reported value of abundance fitness for EQYVVVANYQKQSSSEISLSVGQVVDIIEKNESGWWFVSTAEEQGWVPATCLEGQ [E13S] equal to or greater than -0.3?
Response given: t

Challenge: Decide: is the reported value of abundance fitness for EQYVVVANYQKQESSEISLSVGQVVDIIEKNESGWWFVSNAEEQGWVPATCLEGQ [T40N] equal to or greater than -0.3?
Response given: t

Challenge: Decide: is the reported value of abundance fitness for EQYVVVANYQKQESYEISLSVGQVVDIIEKNESGWWFVSTAEEQGWVPATCLEGQ [S15Y] equal to or greater than -0.3?
Response given: t

Challenge: Decide: is the reported value of abundance fitness for EQYVVVANYQKQESSEISLSVGQVVDIIEKNESGWWFVSTAEEQGWVPATCLEGV [Q55V] equal to or greater than -0.3?
Response given: f

Challenge: Decide: is the reported value of abundance fitness for EQYVVVANYQKQESSEISLSVGQVVDIIEKNESGWWFVSSAEEQGWVPATCLEGQ [T40S] equal to or greater than -0.3?
Response given: t

Challenge: Decide: is the reported value of abundance fitness for EQYVVVANYQKQESSEISLSVGQVVDIIEPNESGWWFVSTAEEQGWVPATCLEGQ [K30P] equal to or greater than -0.3?
Response given: f

Challenge: Decide: is the reported value of abundance fitness for EQYVVVANYQKQESSEISLSVGQVVDIIEKNESGWWFQSTAEEQGWVPATCLEGQ [V38Q] equal to or greater than -0.3?
Response given: f

Challenge: Decide: is the reported value of abundance fitness for EQYVVVANYQKQESSEISLSVGQVVDIIEKNESGWWFVSTAEEQNWVPATCLEGQ [G45N] equal to or greater than -0.3?
Response given: f

Challenge: Decide: is the reported value of abundance fitness for EQYVVVANYQKQESSEISLSVGQVVDIIEKNESGWWFVLTAEEQGWVPATCLEGQ [S39L] equal to or greater than -0.3?
Response given: f

Challenge: Decide: is the reported value of abundance fitness for EQYVVVANYQKQESSEISLSVGQVVDIIEKNESGWWFVSTAEEQMWVPATCLEGQ [G45M] equal to or greater than -0.3?
Response given: f
